Test system: A549 cells
Assay: Inhibition of cell growth in tumor cells, MTT assay, A549
Assay type: cell-based
Settings: Homo sapiens, 72 h compound exposure

{"Molecule": "CC(C)C[C@@H](N)C(=O)O[C@H]1CC[C@@]2(C)[C@H](CC[C@@H]3[C@@H]2CC[C@]2(C)[C@@H](c4ccc(=O)oc4)CC[C@]32O)C1", "IC50": "58.8 nM"}
{"Molecule": "C[C@]12CCC(O)C[C@H]1CC[C@@H]1[C@@H]2CC[C@]2(C)[C@@H](c3ccc(=O)oc3)CC[C@]12O (stereo partly shown) [Bufalin, reference compound]", "IC50": "4.4 nM"}
{"Molecule": "C[C@@H](N)C(=O)O[C@H]1CC[C@@]2(C)[C@H](CC[C@@H]3[C@@H]2CC[C@]2(C)[C@@H](c4ccc(=O)oc4)CC[C@]32O)C1", "IC50": "3.4 nM"}
{"Molecule": "C[C@]12CC[C@H](OC(=O)NCCN3CCOCC3)C[C@H]1CC[C@@H]1[C@@H]2CC[C@]2(C)[C@@H](c3ccc(=O)oc3)CC[C@]12O", "IC50": "7.4 nM"}

----------
Reported log10(solubility at 24 h) values are given for each entry in this list.
Assay: Measurement of equilibrium solubility in aqueous buffer (HPLC UV)
Type: physicochemical
Details: aqueous NaOAc/AcOH buffer, thermodynamic from solid, NaOAc/AcOH buffer (100 mM, pH 5.0), shaken at rt for 24 h
Parameter measured: log10(solubility at 24 h) (log10 of the value in µg/mL)

{"Compound": "C[C@]12CC[C@H](OC(=O)N3CCNCC3)C[C@H]1CC[C@@H]1[C@@H]2CC[C@]2(C)[C@@H](c3ccc(=O)oc3)CC[C@]12O", "log10(solubility at 24 h)": 2.92}
{"Compound": "CC(C)[C@H](N)C(=O)O[C@H]1CC[C@@]2(C)[C@H](CC[C@@H]3[C@@H]2CC[C@]2(C)[C@@H](c4ccc(=O)oc4)CC[C@]32O)C1", "log10(solubility at 24 h)": 2.08}
{"Compound": "C[C@]12CC[C@H](OC(=O)OCCN3CCCC3)C[C@H]1CC[C@@H]1[C@@H]2CC[C@]2(C)[C@@H](c3ccc(=O)oc3)CC[C@]12O", "log10(solubility at 24 h)": 2.85}
{"Compound": "C[C@]12CC[C@H](OC(=O)NCCN3CCCC3)C[C@H]1CC[C@@H]1[C@@H]2CC[C@]2(C)[C@@H](c3ccc(=O)oc3)CC[C@]12O", "log10(solubility at 24 h)": 3.02}
{"Compound": "C[C@]12CCC(O)C[C@H]1CC[C@@H]1[C@@H]2CC[C@]2(C)[C@@H](c3ccc(=O)oc3)CC[C@]12O (some centres unmarked) [Bufalin, reference compound]", "log10(solubility at 24 h)": 1.61}

----------
Test system: A549 cells
Test: Inhibition of cell growth in tumor cells, MTT assay, A549
Assay type: cell-based
Settings: Homo sapiens, 72 h compound exposure

{"Compound": "CC(C)C[C@H](N)C(=O)O[C@H]1CC[C@@]2(C)[C@H](CC[C@@H]3[C@@H]2CC[C@]2(C)[C@@H](c4ccc(=O)oc4)CC[C@]32O)C1", "Tgt": "A549 cells", "IC50 / nM": 15.1}
{"Compound": "C[C@]12CC[C@H](OC(=O)OCCN3CCOCC3)C[C@H]1CC[C@@H]1[C@@H]2CC[C@]2(C)[C@@H](c3ccc(=O)oc3)CC[C@]12O", "Tgt": "A549 cells", "IC50 / nM": 12.2}
{"Compound": "C[C@]12CC[C@H](OC(=O)N3CCNCC3)C[C@H]1CC[C@@H]1[C@@H]2CC[C@]2(C)[C@@H](c3ccc(=O)oc3)CC[C@]12O", "Tgt": "A549 cells", "IC50 / nM": 1.8}
{"Compound": "CC(C)[C@@H](N)C(=O)O[C@H]1CC[C@@]2(C)[C@H](CC[C@@H]3[C@@H]2CC[C@]2(C)[C@@H](c4ccc(=O)oc4)CC[C@]32O)C1", "Tgt": "A549 cells", "IC50 / nM": 147}
{"Compound": "C[C@]12CC[C@H](OC(=O)NCCCC(=O)O)C[C@H]1CC[C@@H]1[C@@H]2CC[C@]2(C)[C@@H](c3ccc(=O)oc3)CC[C@]12O", "Tgt": "A549 cells", "IC50 / nM": 60}
{"Compound": "C[C@]12CC[C@H](OC(=O)NCCN3CCCC3)C[C@H]1CC[C@@H]1[C@@H]2CC[C@]2(C)[C@@H](c3ccc(=O)oc3)CC[C@]12O", "Tgt": "A549 cells", "IC50 / nM": 2.8}
